Biological target: HDAC4 (Homo sapiens, UniProt P56524)
Sequence (P56524 whole entry, canonical isoform): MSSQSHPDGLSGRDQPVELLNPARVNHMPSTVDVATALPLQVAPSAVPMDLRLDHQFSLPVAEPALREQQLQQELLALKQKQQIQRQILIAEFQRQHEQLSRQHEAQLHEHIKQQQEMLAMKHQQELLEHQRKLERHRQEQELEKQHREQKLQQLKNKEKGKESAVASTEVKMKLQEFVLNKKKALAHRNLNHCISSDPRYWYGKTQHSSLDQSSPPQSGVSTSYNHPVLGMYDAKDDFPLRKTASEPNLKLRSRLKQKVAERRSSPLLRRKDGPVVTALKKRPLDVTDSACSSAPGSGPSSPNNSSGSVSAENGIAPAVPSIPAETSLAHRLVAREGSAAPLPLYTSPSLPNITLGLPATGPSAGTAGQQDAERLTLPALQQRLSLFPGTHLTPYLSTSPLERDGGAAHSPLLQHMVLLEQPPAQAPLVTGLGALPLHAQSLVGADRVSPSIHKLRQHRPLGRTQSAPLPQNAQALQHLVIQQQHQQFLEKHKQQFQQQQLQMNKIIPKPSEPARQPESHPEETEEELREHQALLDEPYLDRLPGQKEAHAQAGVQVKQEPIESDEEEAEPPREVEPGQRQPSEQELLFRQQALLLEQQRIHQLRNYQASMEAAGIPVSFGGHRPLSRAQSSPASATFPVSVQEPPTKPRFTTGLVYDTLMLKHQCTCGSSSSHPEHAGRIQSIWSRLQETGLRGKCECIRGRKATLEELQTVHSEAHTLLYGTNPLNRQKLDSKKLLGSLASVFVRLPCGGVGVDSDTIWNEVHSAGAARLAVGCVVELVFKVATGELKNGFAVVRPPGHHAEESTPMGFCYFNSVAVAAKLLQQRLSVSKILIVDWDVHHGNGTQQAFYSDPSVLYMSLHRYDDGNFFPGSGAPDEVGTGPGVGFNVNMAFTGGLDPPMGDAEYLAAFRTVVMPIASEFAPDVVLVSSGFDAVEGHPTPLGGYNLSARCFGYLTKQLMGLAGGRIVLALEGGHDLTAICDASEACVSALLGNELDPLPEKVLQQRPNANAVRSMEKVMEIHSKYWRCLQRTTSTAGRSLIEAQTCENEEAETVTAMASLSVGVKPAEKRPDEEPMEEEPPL
Assay: HDAC isoform inhibition, HDAC4
Format: biochemical
reported-endpoint: pIC50
// pIC50: -log10(molar conc.)

May I ask what pIC50 has been recorded for `CC[C@H](C(=O)Nc1ncc(C(=O)NO)s1)c1ccc(OC)cc1` ?
6.86

====

Molecular target: HDAC2 (Homo sapiens, UniProt Q92769)
Sequence (Q92769 whole entry, canonical isoform): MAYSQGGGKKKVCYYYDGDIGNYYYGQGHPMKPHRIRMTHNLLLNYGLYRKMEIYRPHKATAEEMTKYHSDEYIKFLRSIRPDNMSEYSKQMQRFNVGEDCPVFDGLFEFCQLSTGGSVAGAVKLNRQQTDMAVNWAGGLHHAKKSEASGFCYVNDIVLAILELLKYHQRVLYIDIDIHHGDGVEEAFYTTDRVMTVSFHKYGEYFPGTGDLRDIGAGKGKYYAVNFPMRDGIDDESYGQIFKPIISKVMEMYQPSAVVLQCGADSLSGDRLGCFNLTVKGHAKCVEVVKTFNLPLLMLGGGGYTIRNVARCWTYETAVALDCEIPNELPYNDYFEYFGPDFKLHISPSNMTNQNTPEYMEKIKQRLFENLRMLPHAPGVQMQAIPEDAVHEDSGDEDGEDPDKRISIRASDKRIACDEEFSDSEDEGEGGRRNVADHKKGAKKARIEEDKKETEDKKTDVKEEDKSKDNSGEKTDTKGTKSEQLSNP
Test: HDAC isoform inhibition, HDAC2
reported-endpoint: IC50 (nM)
# number only, unit nM dropped from output

May I ask what IC50 has been recorded for `CC[C@H](C(=O)Nc1ncc(C(=O)NO)s1)c1ccc(OC)cc1` ?
5.3

====

Biological target: HDAC8 (Homo sapiens)
Sequence (Q9BY41 whole entry, canonical isoform): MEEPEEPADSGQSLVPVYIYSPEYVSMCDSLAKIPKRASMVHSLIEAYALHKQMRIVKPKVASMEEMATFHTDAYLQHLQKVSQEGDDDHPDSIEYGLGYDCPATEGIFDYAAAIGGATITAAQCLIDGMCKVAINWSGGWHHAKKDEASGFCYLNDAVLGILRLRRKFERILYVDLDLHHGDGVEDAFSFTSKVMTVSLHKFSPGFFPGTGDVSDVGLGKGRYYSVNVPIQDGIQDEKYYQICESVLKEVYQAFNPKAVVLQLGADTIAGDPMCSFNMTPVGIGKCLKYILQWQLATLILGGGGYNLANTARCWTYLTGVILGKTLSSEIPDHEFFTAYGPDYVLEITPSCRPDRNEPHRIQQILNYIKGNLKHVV
Assay: HDAC isoform inhibition, HDAC8
reported-endpoint: IC50

May I ask what IC50 has been recorded for `CC[C@H](C(=O)Nc1ncc(C(=O)NO)s1)c1ccc(OC)cc1` ?
133 nM

====

System: A204
Test: CellTiter-Glo cell viability assay, A204
Format: cell-based
Conditions: Homo sapiens, read-out: anti-proliferative IC50
reported-endpoint: pIC50
// pIC50: -log10(molar conc.)

May I ask what pIC50 has been recorded for `CC[C@H](C(=O)Nc1ncc(C(=O)NO)s1)c1ccc(OC)cc1` ?
7.02

====

Test system: SCCOHT cell lines (BIN67, COV434, and SCCOHT-1)
Experiment: Cell proliferation assays, three SCCOHT cell lines
Format: cell-based
Conditions: Homo sapiens; range over BIN67, COV434, SCCOHT-1
reported-endpoint: IC50

May I ask what IC50 has been recorded for `CC[C@H](C(=O)Nc1ncc(C(=O)NO)s1)c1ccc(OC)cc1` ?
0.051 to 0.293 µM

====

Target: HDAC7 (Homo sapiens, UniProt Q8WUI4)
Sequence (Q8WUI4 whole entry, canonical isoform): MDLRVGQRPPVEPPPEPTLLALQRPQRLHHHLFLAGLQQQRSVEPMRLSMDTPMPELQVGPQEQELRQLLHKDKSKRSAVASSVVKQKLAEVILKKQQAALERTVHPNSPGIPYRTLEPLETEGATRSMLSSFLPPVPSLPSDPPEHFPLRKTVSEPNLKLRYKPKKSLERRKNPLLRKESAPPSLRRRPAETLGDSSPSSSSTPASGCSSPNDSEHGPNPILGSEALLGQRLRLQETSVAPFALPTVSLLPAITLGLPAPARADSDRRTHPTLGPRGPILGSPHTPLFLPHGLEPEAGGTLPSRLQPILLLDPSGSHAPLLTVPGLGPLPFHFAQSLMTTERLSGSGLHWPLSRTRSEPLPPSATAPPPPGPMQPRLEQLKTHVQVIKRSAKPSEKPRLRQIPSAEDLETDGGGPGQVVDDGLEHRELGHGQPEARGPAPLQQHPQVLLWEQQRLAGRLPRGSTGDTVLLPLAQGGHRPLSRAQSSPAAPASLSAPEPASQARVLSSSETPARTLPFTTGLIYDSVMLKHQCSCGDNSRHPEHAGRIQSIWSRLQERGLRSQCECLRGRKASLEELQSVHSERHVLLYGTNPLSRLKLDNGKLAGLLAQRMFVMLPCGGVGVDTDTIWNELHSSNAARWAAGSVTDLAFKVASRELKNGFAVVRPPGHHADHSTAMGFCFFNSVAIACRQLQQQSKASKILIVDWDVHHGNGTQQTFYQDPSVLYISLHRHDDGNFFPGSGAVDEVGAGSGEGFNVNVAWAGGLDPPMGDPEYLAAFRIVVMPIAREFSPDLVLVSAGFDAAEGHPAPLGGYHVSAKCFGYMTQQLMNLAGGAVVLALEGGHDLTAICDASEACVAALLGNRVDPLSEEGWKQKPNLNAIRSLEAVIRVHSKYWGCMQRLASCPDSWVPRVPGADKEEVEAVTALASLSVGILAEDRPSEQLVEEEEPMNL
Assay: HDAC isoform inhibition, HDAC7
Source text: In contrast to pan-HDAC inhibition, isoform restricted HDAC inhibition revokes immune privilege. […]
reported-endpoint: IC50 (nM)
# number only, unit nM dropped from output

May I ask what IC50 has been recorded for `CC[C@H](C(=O)Nc1ncc(C(=O)NO)s1)c1ccc(OC)cc1` ?
34.5

====

System: BIN67
Assay: CellTiter-Glo cell viability assay, BIN67
Assay type: cell-based
Details: Homo sapiens; BIN67, 72 hours treatment
reported-endpoint: IC50 (nM)
# number only, unit nM dropped from output

May I ask what IC50 has been recorded for `CC[C@H](C(=O)Nc1ncc(C(=O)NO)s1)c1ccc(OC)cc1` ?
51
